experiment: Drug level in New Zealand white rabbit bone marrow assessed as [14C]dalbavancin level per gram of tissue at 20 mg/kg, iv after 120 hrs by liquid scintillation counting method; assay type: ADME, organism-based, Oryctolagus cuniculus; parameters: dose 20 mg/kg, route intravenous; details: in vivo
parameter: Drug uptake (µg/g)

>  <compound-smiles>
CN[C@H]1C(=O)N[C@@H]2Cc3ccc(cc3)Oc3cc4cc(c3O[C@@H]3O[C@H](C(=O)O)[C@@H](O)[C@H](O)[C@H]3NC(=O)CCCCCCCCC(C)C)Oc3ccc(cc3Cl)[C@@H](O)[C@@H]3NC(=O)[C@H](NC(=O)[C@@H]4NC(=O)[C@@H](NC2=O)c2cc(cc(O)c2Cl)Oc2cc1ccc2O)c1ccc(O)c(c1)-c1c(O[C@H]2O[C@H](CO)[C@@H](O)[C@H](O)[C@@H]2O)cc(O)cc1[C@@H](C(=O)NCCCN(C)C)NC3=O

>  <numeric-result>
9.52

$$$$

----------
assay: Drug level in New Zealand white rabbit ligament assessed as [14C]dalbavancin level per gram of tissue at 20 mg/kg, iv after 120 hrs by autoradioluminography; assay type: ADME, organism-based, Oryctolagus cuniculus; set-up: dose 20 mg/kg, route intravenous; conditions: in vivo
parameter: Drug uptake (µg/g)

>  <compound-smiles>
CN[C@H]1C(=O)N[C@@H]2Cc3ccc(cc3)Oc3cc4cc(c3O[C@@H]3O[C@H](C(=O)O)[C@@H](O)[C@H](O)[C@H]3NC(=O)CCCCCCCCC(C)C)Oc3ccc(cc3Cl)[C@@H](O)[C@@H]3NC(=O)[C@H](NC(=O)[C@@H]4NC(=O)[C@@H](NC2=O)c2cc(cc(O)c2Cl)Oc2cc1ccc2O)c1ccc(O)c(c1)-c1c(O[C@H]2O[C@H](CO)[C@@H](O)[C@H](O)[C@@H]2O)cc(O)cc1[C@@H](C(=O)NCCCN(C)C)NC3=O

>  <numeric-result>
3.68

$$$$

----------
test: Drug level in New Zealand white rabbit epiphyseal plate assessed as [14C]dalbavancin level per gram of tissue at 20 mg/kg, iv after 168 hrs by autoradioluminography; type: ADME, organism-based, Oryctolagus cuniculus; set-up: dose 20 mg/kg, route intravenous; settings: in vivo
parameter: Drug uptake (µg/g)

>  <compound>
CN[C@H]1C(=O)N[C@@H]2Cc3ccc(cc3)Oc3cc4cc(c3O[C@@H]3O[C@H](C(=O)O)[C@@H](O)[C@H](O)[C@H]3NC(=O)CCCCCCCCC(C)C)Oc3ccc(cc3Cl)[C@@H](O)[C@@H]3NC(=O)[C@H](NC(=O)[C@@H]4NC(=O)[C@@H](NC2=O)c2cc(cc(O)c2Cl)Oc2cc1ccc2O)c1ccc(O)c(c1)-c1c(O[C@H]2O[C@H](CO)[C@@H](O)[C@H](O)[C@@H]2O)cc(O)cc1[C@@H](C(=O)NCCCN(C)C)NC3=O [DALBAVANCIN]

>  <parameter>
Drug uptake

>  <endpoint-unit>
µg/g

>  <numeric-result>
13.1

$$$$

----------
test system: Blood; experiment: Drug level in New Zealand white rabbit blood assessed as [14C]dalbavancin level per gram of tissue at 20 mg/kg, iv after 72 hrs by autoradioluminography; assay type: ADME, organism-based, Oryctolagus cuniculus; design: dose 20 mg/kg, route intravenous; conditions: in vivo

>  <compound-smiles>
CN[C@H]1C(=O)N[C@@H]2Cc3ccc(cc3)Oc3cc4cc(c3O[C@@H]3O[C@H](C(=O)O)[C@@H](O)[C@H](O)[C@H]3NC(=O)CCCCCCCCC(C)C)Oc3ccc(cc3Cl)[C@@H](O)[C@@H]3NC(=O)[C@H](NC(=O)[C@@H]4NC(=O)[C@@H](NC2=O)c2cc(cc(O)c2Cl)Oc2cc1ccc2O)c1ccc(O)c(c1)-c1c(O[C@H]2O[C@H](CO)[C@@H](O)[C@H](O)[C@@H]2O)cc(O)cc1[C@@H](C(=O)NCCCN(C)C)NC3=O

>  <Drug uptake (µg/g)>
5.02

$$$$
